test system: PCTK3; construct: gene CDK18; details: concentration: 1 μM,replicates: in singlicate; n = 1;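 note: KINOMEscan kinase panel screen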
# %Inh per entry
Field: numeric (%). Do not append units.

Let me check: O=C(Nc1n[nH]c2cc(-c3ccco3)ccc12)C1CC1 , system PCTK3, measured %Inh is 28

Reported PCTK3 %Inh for item COc1ccc(Nc2nccc(N3CCC(NC(=O)c4cccc(C#N)c4)C3)n2)cc1 (stereo not shown) was 3

Response field %Inh (PCTK3) for item Cc1ccc(CC(=O)N2CCc3cc(-c4cn(C)c5ncnc(N)c45)ccc32)cc1 : 0

Tested system PCTK3; %Inh recorded for COc1cc2nccc(Nc3ccc(Oc4ccccc4)cc3)c2cc1OC.Cl was 0

---
# lookup: CN(c1ccccc1CNc1nc(Nc2ccc3c(c2)CC(=O)N3)ncc1C(F)(F)F)S(C)(=O)=O on PCTK3, %Inh = 4

Bench note, PCTK3: C[C@@H](Oc1cc(-n2cnc3ccc(-c4ccncc4)cc32)sc1C(N)=O)c1ccccc1Cl , %Inh reads 47

Reading of %Inh for COc1cccc(OC)c1C(=O)Nc1cccc(-c2nn3ccccc3c2-c2ccnc(Nc3cccc(F)c3)n2)c1 with PCTK3: 3

----------
test system: HASPIN; construct: gene GSG2; conditions: concentration: 1 μM,replicates: in singlicate; n = 1
Recorded endpoint: %Inh (%)
The answer is to be given in %; state only the numeric part.

Here is how some compounds turned out for %Inh.
In plain terms, NC(=O)Nc1sc(-c2ccc(F)cc2)cc1C(N)=O has a documented %Inh of 3

Entry CN1CCN(CCCNc2nccc(-c3c(-c4ccc(F)cc4)nn4cc(C(N)=O)ccc34)n2)CC1 — recorded %Inh = 0

Please fill in: %Inh reported for O=C(NOCC1CC1)c1cc(Br)c(F)c(F)c1Nc1ccc(I)cc1Cl = 0

Entry under test: C[C@@H]1CCN(C(=O)N2CCCC2)C[C@@H]1N(C)c1ncnc2[nH]ccc12 . Its %Inh was 30

// CC(=O)c1c(-c2ccncc2)[nH]c(-c2ccncc2)c1C : %Inh value = 85

get_value(item= CSc1nccc(-c2c(-c3ccc(F)cc3)ncn2CCCN2CCOCC2)n1.Cl , readout=%Inh) returns 0

Entry CCN1CCN(CCCC(=O)Nc2n[nH]c3nc(-c4ccc(O)cc4)c(Br)cc23)CC1 ; %Inh = 0

For record O=C(Nc1cccc(Oc2ccc3nccn3n2)c1)Nc1cccc(C(F)(F)F)c1 the listed %Inh is 0

Okay, next one:
For record COC(=O)c1cccc(NC(=O)NC2CCN(c3ccnc(Nc4cc(OC)c(OC)c(OC)c4)n3)C2)c1 (stereo not drawn) the listed %Inh is 15

----------
test system: TEC; conditions: concentration: 1 μM,replicates: in singlicate; n = 1
Binary call on %Inh: YES from 1% upward, NO beneath that.

Some solved entries appear below for comparison.
Lookup: Given the entry OCCn1cc(-c2cnc3nnn(Cc4ccc5ncccc5c4)c3n2)cn1 , answer whether its %Inh meets or surpasses 1%.
Found: NO

Lookup: Record COc1cccc(C2=C(Nc3cccc(Cl)c3)C(=O)NC2=O)c1 ; criterion: %Inh no lower than 1%. Met?
Found: NO

Lookup: Please tell me: is the compound Cc1n[nH]c2cc(Nc3ccnc(Nc4cccc(CN5CCOCC5)c4)n3)ccc12 at or over 1% in terms of %Inh?
Found: NO

Lookup: Reported %Inh at or above 1%? Cc1nnc(-c2ccc3occ(-c4ccc(S(C)=O)cc4)c3n2)o1 (stereo not drawn)
Found: NO

Lookup: Evaluate CCn1c(-c2nonc2N)nc2cncc(CNC3CCNCC3)c21.Cl : %Inh at minimum 1%?
Found: YES

Continuing:
Lookup: Textbook exercise: given the entry Cn1ccc2ncnc(Oc3ccc(NC(=O)Nc4ccnc(C(F)(F)F)c4)c(Cl)c3)c21 , state whether its %Inh is greater than or equal to 1%.
Found: NO

Lookup: Reported %Inh at or above 1%? C[C@@H](Oc1cc(-n2cnc3cc(-c4ccncc4)ccc32)sc1C(N)=O)c1ccccc1Cl
Found: YES

Lookup: Would you say CC(=O)c1c(-c2ccncc2)[nH]c(-c2ccncc2)c1C shows %Inh at minimum 1%?
Found: NO

Lookup: Please indicate if the recorded %Inh for Cc1ccc(CC(=O)N2CCc3cc(-c4cn(C)c5ncnc(N)c45)ccc32)cc1 meets or exceeds 1%.
Found: NO

Lookup: Determine whether measured %Inh meets or exceeds 1% for O=C(Nc1cccc(C(F)(F)F)c1)c1cccc(Oc2ccc3nccn3n2)c1
Found: YES

Lookup: Reported %Inh at or above 1%? CCCC(=O)Nc1n[nH]c2ncccc12
Found: NO

Lookup: Is the recorded value of %Inh equal to or greater than 1% for this compound? Cn1ccc2ncnc(Oc3ccc(NC(=O)Nc4cccc(C(F)(F)F)c4)c(Cl)c3)c21
Found: NO

Lookup: Does Cc1cccc2c(-c3ccncc3)c(-c3ccc(F)cc3)nn12.Cl have a reported %Inh of at least 1%?
Found: NO

Lookup: Threshold query (%Inh >= 1%) on NC(=O)c1ccc(-c2cc3ncnc(SCC(=O)O)c3s2)cc1
Found: NO

Lookup: Reported %Inh at or above 1%? COc1cccc(CNC(=O)NC2CCN(c3ccnc(Nc4cc(OC)c(OC)c(OC)c4)n3)C2)c1 (stereo not drawn)
Found: YES

Lookup: Please check the record CSc1nccc(-c2c(-c3ccc(F)cc3)ncn2CCCN2CCOCC2)n1.Cl and state if its %Inh is at or above 1%.
Found: YES

Lookup: Does the reported %Inh for Cc1ccc2c(-c3ccnc(Nc4ccc(C(F)(F)F)cc4)n3)cnn2n1 fall at or above the 1% mark?
Found: YES

// provenance: paper PMC5540273
